Attribute: residual activity
- system.name: UniProt:Q9UEW8
- experiment: radiometric filter-binding kinase assay, Kinase HotSpot
- condition.parameters: compound 0.5 µM; ATP 10 µM
Give just the numeric value; % need not be written.

# count of solved cases: 6
Query string: # get_value(readout='residual activity', item= Nc1ncnc2[nH]nc(Nc3ccc(F)cc3)c12 )
Result string: 88.5

Query string: Same read-out for O=C1Nc2ccc(Cl)cc2/C1=C/c1cc(Cl)c(O)c(Cl)c1 ?
Result string: 97

Query string: Same read-out for Cc1ccc(S(=O)(=O)/C=C/C#N)cc1 ?
Result string: 83.7

Query string: Same read-out for Nc1ccc2ncnc(NCCc3ccc(Oc4ccccc4)cc3)c2c1 ?
Result string: 83.9

Query string: Same read-out for O=C1NC(=O)c2c1c1c3ccccc3n3c1c1c2c2ccccc2n1C1CCC3O1 ?
Result string: 88.3

Query string: Same read-out for CO[C@H]1CC2CC[C@@H](C)[C@@](O)(O2)C(=O)C(=O)N2CCCC[C@H]2C(=O)OC([C@H](C)C[C@@H]2CC[C@@H](O)[C@H](OC)C2)CC(=O)[C@H](C)/C=C(\C)[C@@H](O)[C@@H](OC)C(=O)[C@H](C)C[C@H](C)/C=C/C=C/C=C/1C (stereo partly specified) ?
Result string: 97.9

***
Query string: # get_value(readout='residual activity', item= COc1cc2ncnc(Nc3cccc(Cl)c3)c2cc1OC )
Result string: 97

Query string: Same read-out for O=C(Nc1cccc(Nc2nccc(Nc3cccc(C(F)(F)F)c3)n2)c1)C1CC1 ?
Result string: 94.1

Query string: Same read-out for CCN(CC)CCNC(=O)c1c(C)[nH]c(/C=C2\C(=O)Nc3ccc(F)cc32)c1C ?
Result string: 87.4

Query string: Same read-out for O=C1NC(=O)/C(=C/c2ccc3c(c2)OC(F)(F)O3)S1 ?
Result string: 110

Query string: Same read-out for Nc1ncnc2c1c(-c1ccc(Oc3ccccc3)cc1)cn2C1CCCC1 ?
Result string: 84.8

* * *

- system.name: CLK4 (human) (UniProt Q9HAZ1)
- Sequence (Q9HAZ1 whole entry, looked up): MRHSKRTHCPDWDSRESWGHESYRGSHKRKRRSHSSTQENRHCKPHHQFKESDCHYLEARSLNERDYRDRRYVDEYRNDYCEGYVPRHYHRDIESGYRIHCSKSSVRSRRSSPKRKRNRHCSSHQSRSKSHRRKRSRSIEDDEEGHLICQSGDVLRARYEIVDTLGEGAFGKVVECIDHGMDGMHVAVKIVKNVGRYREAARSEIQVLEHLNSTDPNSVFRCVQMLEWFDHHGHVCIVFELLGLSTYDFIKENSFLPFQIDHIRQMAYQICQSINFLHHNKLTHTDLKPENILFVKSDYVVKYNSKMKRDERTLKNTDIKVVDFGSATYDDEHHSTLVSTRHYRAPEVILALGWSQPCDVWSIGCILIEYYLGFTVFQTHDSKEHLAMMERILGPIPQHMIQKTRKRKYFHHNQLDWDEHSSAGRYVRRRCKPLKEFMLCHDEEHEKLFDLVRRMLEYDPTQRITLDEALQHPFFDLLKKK
- experiment: radiometric filter-binding kinase assay, Kinase HotSpot
- condition.parameters: compound 0.5 µM; ATP 10 µM
recorded.metric: residual activity (%)
Give just the numeric value; % need not be written.

Query string: Under CLK4 (human) (UniProt Q9HAZ1): residual activity value of Cc1ccc(Nc2nccc(N(C)c3ccc4c(C)n(C)nc4c3)n2)cc1S(N)(=O)=O ?
Result string: 91.7

* * *

- system.name: ULK3 (human)
- experiment: radiometric filter-binding kinase assay, Kinase HotSpot
- condition.parameters: compound 0.5 µM; ATP 10 µM
Attribute: residual activity
Give just the numeric value; % need not be written.

# count of solved cases: 6
Query string: # get_value(readout='residual activity', item= CNC(=O)c1cc(Oc2ccc(NC(=O)Nc3ccc(Cl)c(C(F)(F)F)c3)cc2)ccn1 )
Result string: 103

Query string: Same read-out for CO[C@H]1CC2CC[C@@H](C)[C@@](O)(O2)C(=O)C(=O)N2CCCC[C@H]2C(=O)OC([C@H](C)C[C@@H]2CC[C@@H](O)[C@H](OC)C2)CC(=O)[C@H](C)/C=C(\C)[C@@H](O)[C@@H](OC)C(=O)[C@H](C)C[C@H](C)/C=C/C=C/C=C/1C (stereo not given in full) ?
Result string: 85.6

Query string: Same read-out for CCN(CC)CCNC(=O)c1c(C)[nH]c(/C=C2\C(=O)Nc3ccc(F)cc32)c1C ?
Result string: 57.4

Query string: Same read-out for Nc1ncnc2[nH]nc(Nc3ccc(F)cc3)c12 ?
Result string: 92.8

Query string: Same read-out for CC(C)N(CCC(=O)c1ccc2ccccc2c1)Cc1ccccc1 ?
Result string: 95.8

Query string: Same read-out for c1ccc(-c2n[nH]cc2-c2ccnc3ccccc23)nc1 ?
Result string: 85.3

***
Query string: # get_value(readout='residual activity', item= O=C1Nc2ccc(Cl)cc2/C1=C/c1cc(Cl)c(O)c(Cl)c1 )
Result string: 92.2

Query string: Same read-out for N#CC(C#N)=C(N)/C(C#N)=C/c1ccc(O)cc1 ?
Result string: 67.8

Query string: Same read-out for CCCC(=O)Oc1ccc2[nH]c(C(=O)c3cc4ccccc4[nH]3)cc2c1 ?
Result string: 89.5

Query string: Same read-out for Nc1ncnc2c1c(-c1ccc(Oc3ccccc3)cc1)cn2C1CCCC1 ?
Result string: 102

Query string: Same read-out for O=C1NC(=O)c2c1c1c3ccccc3n3c1c1c2c2ccccc2n1C1CCC3O1 ?
Result string: 33

The reported measurements were obtained from the kinase profiling compilation of Christmann-Franck et al. (2016).
